- ASSAYED_TARGET: Nucleotide-binding oligomerization domain-containing protein 2 (Homo sapiens)
- Sequence (Q9HC29 whole entry, the tested form may be a part): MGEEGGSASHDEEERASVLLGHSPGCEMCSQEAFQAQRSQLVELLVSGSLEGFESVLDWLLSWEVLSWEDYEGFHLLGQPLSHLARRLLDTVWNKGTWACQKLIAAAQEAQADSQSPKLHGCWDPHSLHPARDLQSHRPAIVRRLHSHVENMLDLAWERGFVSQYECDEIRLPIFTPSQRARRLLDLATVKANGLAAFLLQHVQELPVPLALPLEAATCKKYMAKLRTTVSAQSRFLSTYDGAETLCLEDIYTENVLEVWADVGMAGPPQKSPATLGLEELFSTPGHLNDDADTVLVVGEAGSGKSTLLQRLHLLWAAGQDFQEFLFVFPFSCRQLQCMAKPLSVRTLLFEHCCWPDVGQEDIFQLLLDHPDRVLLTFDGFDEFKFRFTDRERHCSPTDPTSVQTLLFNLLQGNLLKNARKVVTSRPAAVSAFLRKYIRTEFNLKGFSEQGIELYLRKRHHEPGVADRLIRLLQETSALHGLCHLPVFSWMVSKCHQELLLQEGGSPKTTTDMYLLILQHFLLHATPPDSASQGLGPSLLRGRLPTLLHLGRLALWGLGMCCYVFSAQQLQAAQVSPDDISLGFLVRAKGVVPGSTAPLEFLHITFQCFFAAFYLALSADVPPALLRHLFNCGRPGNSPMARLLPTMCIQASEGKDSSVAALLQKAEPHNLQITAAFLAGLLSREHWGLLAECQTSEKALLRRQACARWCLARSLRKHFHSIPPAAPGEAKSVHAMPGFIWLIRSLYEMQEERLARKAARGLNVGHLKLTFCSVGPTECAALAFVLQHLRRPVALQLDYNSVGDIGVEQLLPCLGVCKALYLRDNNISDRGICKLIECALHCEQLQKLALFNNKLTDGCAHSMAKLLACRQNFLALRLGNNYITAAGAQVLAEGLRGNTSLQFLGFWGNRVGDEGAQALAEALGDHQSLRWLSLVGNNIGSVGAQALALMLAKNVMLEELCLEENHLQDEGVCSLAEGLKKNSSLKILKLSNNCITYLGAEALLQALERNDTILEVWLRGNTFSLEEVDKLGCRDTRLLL
- ASSAY_INFO: Antagonist activity at human NOD2 expressed in HEK-Blue cells assessed as inhibition of MDP-stimulated cell activation at 10 uM preincubated for 3 hrs followed by MDP addition measured after 20 hrs by SEAP reporter gene assay
- Assay type: cell-based
Hi there, I'd appreciate the recorded inhibition for every entry that follows.
Please reply with the bare figure in % and do not write the unit itself.

input: What measured inhibition is associated with CCCCCCCCCN1C(=O)[C@@H](CCC(=O)N2CCOCC2)N(C)C(=O)c2ccc(Cl)cc21 on Nucleotide-binding oligomerization domain-containing protein 2 (Homo sapiens)?
output: 17.8

input: Moving on to the next molecule: COC(=O)CC[C@H]1NC(=O)c2cc(Oc3cccc(N(C)C)c3)c(NC(=O)COCc3ccccc3Cl)cc2NC1=O
output: 23.8

input: Note, next up: CCCCCCCCCCCCCCCCNC(=O)CC[C@H]1NC(=O)c2cc(Oc3cccc(N(C)C)c3)c(NC(=O)COCc3ccccc3)cc2NC1=O
output: -7.1

input: Also O=C(CC[C@H]1NC(=O)c2cc(N3CCOCC3)c(NC(=O)C3CC3)cc2NC1=O)NCCC1=CCCCC1 , if possible.
output: -2.95
